B1: HDV Ribozyme (parent)
chain: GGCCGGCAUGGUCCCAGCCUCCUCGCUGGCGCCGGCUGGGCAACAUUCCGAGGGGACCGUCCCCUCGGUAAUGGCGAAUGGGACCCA

Variants of: B1
assay-text: self-cleavage, relative activity (ratio to wild type); higher = more cleavage; co-transcriptional
Lab note: anything with self-cleavage at or over 0.2 counts as 1.0; the rest go in 0.0.

record_sequence=UUCCGGCAUGGUCCCAGCCUCCUCGCUGGCGCCGGCUGGGCAACAUUCCGAGGGGACCGUCCCCUCGGUAAUGGCGAAUGGGACCCA class_name=1.0
record_sequence=GGCCGGCAUGGUCCCAGCCUCCUCGCUGGCGCCGGCGUGGCAACAUUCCGAGGGGACCGUCCCCUCGGUAAUGGCGAAUGGGACCCA class_name=0.0
record_sequence=GGCCGGCAUGGUCCCAGCGUCCUCGCUGGCGCCGGCUGGGCAACAUUCCGAGGGGACCGGCCCCUCGGUAAUGGCGAAUGGGACCCA class_name=0.0

Tell me whether self-cleavage is at least 0.2 here: `GGCCGGCAUGGUCCCAGCCUCCUCGCUGGCGCCGGCUCGGCAAUAUUCCGAGGGGACCGUCCCCUCGGUAAUGGCGAAUGGGACCCA` 0.0

Kindly determine if self-cleavage recorded for `GGCCGGCAUGGUCCCAGCCUCCUCGCUGGCGCCGGCUGGGCAACAUUCCGAGGGGACAGUCCCCUCGGUAGUGGCGAAUGGGACCCA` is above or exactly 0.2. 1.0

Identify whether the reported self-cleavage of the following variant is 0.2 or greater: `GGCCGGCAUGGUCCCAGCCUCCUCGCUGGCGCCGGCUGGGCAACAUUCCGAGGGGACCGUCCCCUGGGUAAUGGCAAAUGGGACCCA` 1.0
